- study target: MAO-A (Homo sapiens)
- Construct: purchased Sigma-Aldrich (Steinheim, Germany)
- Sequence (P21397 1-527): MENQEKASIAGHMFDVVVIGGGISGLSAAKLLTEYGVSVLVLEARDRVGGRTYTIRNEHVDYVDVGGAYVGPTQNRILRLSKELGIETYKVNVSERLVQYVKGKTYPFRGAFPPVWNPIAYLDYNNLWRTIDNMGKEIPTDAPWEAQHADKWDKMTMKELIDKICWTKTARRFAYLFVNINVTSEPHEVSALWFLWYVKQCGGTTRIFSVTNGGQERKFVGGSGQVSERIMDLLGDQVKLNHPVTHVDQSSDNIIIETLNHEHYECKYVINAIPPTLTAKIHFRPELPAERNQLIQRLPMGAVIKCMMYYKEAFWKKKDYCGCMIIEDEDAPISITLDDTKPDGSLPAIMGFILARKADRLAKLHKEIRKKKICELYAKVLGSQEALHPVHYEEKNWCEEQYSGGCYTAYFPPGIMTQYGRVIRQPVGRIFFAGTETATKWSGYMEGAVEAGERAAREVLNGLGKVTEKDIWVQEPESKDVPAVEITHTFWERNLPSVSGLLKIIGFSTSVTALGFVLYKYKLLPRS
- protocol summary: In vitro fluorometric MAO-A inhibition assay (Ampliflu Red, tyramine)
- Assay type: biochemical
- measurement conditions: 10^−4 M
observable: inhibition at 100 µM (%)
Hi! Could you send only the number? It should be in %, unit omitted.

In [3]: df
Out[3]:
                                   compound            observable  unit_of_measure  result
0  CN1CCN(c2ccc(C=NNc3nc(-c4ccccc4)cs3)cc2)CC1 [Compound 3a]  inhibition at 100 µM                %    34.3
1  CN1CCN(c2ccc(C=NNc3nc(-c4ccc(C#N)cc4)cs3)cc2)CC1 [Compound 3d]  inhibition at 100 µM                %    84.4

Attention now turns to another entry.
QUERY: Form field - read-out: inhibition at 100 µM; system: MAO-A (Homo sapiens); submitted item: Cc1ccc(-c2csc(NN=Cc3ccc(N4CCN(C)CC4)cc3)n2)cc1 [Compound 3b]
RESULT: 31.5
